# SPOT peptide array binding signal intensity annotations
- measured on: AgHof1
- protocol description: SPOT peptide array binding signal intensity (averaged, normalized) (arbitrary units (background-subtracted, floor 0; scale differs between SH3 domains)); higher = stronger binding of the SH3 domain to the peptide

Here are 3 binders together with their reported answers.
PIVPSSPAPPLPLSG ≤ 0
EVTPKVPERPSRRKT 21.8
IFLRISINFPLNYPN 218

Here's the next entry for you.
Report SPOT peptide array binding signal intensity for NAGIRPKFILALNDE please.
13.8
